# TESTED ON: TBK1(h) (Homo sapiens)
# Sequence (Q9UHD2 1-729): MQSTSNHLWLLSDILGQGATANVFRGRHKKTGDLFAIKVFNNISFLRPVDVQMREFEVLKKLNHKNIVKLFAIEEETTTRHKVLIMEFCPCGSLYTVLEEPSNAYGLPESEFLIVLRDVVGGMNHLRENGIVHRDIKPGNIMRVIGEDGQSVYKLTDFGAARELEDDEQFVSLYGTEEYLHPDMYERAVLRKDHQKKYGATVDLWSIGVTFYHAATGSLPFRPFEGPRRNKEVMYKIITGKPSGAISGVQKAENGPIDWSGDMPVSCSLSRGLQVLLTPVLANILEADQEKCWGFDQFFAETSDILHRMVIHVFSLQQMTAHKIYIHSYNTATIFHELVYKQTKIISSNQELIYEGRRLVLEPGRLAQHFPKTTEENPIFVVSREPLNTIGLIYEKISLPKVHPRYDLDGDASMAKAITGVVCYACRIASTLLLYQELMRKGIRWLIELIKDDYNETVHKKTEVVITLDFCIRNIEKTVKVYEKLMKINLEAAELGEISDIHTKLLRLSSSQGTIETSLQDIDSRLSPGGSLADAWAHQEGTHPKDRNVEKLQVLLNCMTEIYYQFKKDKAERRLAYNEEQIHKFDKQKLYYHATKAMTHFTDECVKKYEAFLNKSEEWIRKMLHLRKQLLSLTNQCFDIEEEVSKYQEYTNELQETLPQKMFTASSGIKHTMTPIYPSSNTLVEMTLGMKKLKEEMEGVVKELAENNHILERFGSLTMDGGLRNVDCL
# EXPERIMENT SUMMARY: Kinase Profiling Assay
# Format: biochemical
# STUDY CONDITIONS: 100 μM
METRIC NAME: % activity (%)

BIOPOLYMER SEQUENCE: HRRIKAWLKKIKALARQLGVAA [MMI-0500]
TESTED ON: TBK1(h) (Homo sapiens)
REPORTED MEASUREMENT: 16
//
BIOPOLYMER SEQUENCE: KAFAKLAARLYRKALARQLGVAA [MMI-0400]
TESTED ON: TBK1(h) (Homo sapiens)
REPORTED MEASUREMENT: 39
//
BIOPOLYMER SEQUENCE: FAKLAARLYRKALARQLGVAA [MMI-0300]
TESTED ON: TBK1(h) (Homo sapiens)
REPORTED MEASUREMENT: 37
//
BIOPOLYMER SEQUENCE: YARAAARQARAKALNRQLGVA [MMI-0200]
TESTED ON: TBK1(h) (Homo sapiens)
REPORTED MEASUREMENT: 98

###

# TESTED ON: EphB2(h) (Homo sapiens, UniProt P29323)
# Sequence (P29323 19-1055): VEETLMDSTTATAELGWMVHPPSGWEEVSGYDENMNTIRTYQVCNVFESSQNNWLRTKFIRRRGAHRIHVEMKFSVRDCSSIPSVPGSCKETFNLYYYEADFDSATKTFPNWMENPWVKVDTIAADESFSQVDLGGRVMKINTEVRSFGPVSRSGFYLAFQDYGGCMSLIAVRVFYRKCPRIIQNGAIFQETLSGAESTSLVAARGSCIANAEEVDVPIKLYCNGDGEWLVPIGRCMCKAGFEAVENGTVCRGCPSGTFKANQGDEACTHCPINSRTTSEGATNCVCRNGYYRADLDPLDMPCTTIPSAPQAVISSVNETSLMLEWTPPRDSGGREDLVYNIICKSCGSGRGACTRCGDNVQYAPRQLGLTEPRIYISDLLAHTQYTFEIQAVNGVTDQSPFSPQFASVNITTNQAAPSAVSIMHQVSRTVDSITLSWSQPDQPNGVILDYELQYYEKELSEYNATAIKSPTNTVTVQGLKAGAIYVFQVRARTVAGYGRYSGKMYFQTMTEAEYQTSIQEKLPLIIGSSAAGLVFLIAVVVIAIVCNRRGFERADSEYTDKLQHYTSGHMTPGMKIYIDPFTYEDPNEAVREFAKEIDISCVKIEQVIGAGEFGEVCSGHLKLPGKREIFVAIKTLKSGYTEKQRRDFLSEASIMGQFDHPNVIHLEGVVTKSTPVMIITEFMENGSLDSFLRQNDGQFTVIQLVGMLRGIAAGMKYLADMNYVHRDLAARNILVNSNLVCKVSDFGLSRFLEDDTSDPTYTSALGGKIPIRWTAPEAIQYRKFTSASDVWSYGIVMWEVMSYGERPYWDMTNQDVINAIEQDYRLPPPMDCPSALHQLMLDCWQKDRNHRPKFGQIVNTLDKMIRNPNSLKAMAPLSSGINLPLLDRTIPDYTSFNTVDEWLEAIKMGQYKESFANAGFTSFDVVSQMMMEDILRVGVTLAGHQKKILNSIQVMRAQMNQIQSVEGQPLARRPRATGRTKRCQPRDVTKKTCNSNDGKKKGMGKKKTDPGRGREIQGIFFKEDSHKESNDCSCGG
# EXPERIMENT SUMMARY: Kinase Profiling Assay
# Assay type: biochemical
# STUDY CONDITIONS: 100 μM
% activity by entry:

BIOPOLYMER SEQUENCE: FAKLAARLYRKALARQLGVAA [MMI-0300]
% activity (%): 18
//
BIOPOLYMER SEQUENCE: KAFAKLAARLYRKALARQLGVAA [MMI-0400]
% activity (%): 22
//
BIOPOLYMER SEQUENCE: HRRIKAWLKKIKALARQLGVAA [MMI-0500]
% activity (%): 70
//
BIOPOLYMER SEQUENCE: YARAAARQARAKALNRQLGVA [MMI-0200]
% activity (%): 128
